All values here come from patent US6593333B1.

Biological target: UniProtKB Q16539
Sequence (Q16539 whole entry): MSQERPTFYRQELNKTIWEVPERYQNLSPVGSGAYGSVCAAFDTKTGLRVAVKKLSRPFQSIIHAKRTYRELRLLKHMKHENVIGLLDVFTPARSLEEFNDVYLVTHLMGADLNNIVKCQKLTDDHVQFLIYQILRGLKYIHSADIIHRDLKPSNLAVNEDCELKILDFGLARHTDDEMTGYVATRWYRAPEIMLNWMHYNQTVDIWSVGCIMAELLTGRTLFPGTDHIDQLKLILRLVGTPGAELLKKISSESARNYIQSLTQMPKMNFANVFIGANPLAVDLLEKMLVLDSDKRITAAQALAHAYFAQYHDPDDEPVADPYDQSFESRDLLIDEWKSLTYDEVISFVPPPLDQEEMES
readout.kind: IC50 (nM)
Use nM as the unit, but write only the number.

According to the records, this compound `COc1cc2c(Nc3cc(NC(=O)c4cccc(N(C)C)c4)ccc3C)ncnc2cc1OCCCN1CCOCC1` displays IC50 of 100
